Listing: IC50 of selected molecules
Tested on: MYB mRNA
Method Notes: Gene panel canonical junction qPCR assay, decrease in CJ mRNA, Table 3
Format: cell-based
Reported Conditions: decrease in canonical junction (CJ) mRNA, gene panel qPCR, Table 3
Counter-ions that a name gives are not always drawn.

| Molecule | Target | IC50 |
| --- | --- | --- |
| Cc1cn2cc(NC(=O)c3c(F)cc(N4CCNCC4)c4c3CN(C)C4)cc(F)c2n1 | MYB mRNA | > 10000 nM |
| Cc1cn2cc(NC(=O)c3ccc(N4CCC(NC5CC5)CC4)c4cn(C)nc34)nc2c(-c2cnoc2)n1 | MYB mRNA | > 10000 nM |
| CN[C@@H]1C[C@@H](C)N(c2ccc(C(=O)Nc3cc(F)c4nc(C)cn4c3)c3nn(C)cc23)C1 | MYB mRNA | 100 to 1000 nM |
| COc1cc2nn(C)cc2cc1NC(=O)c1ccc(N2CCC(NC3CC3)CC2)c2c(F)n(C)nc12 | MYB mRNA | 100 to 1000 nM |
| COc1nc2nn(C)cc2cc1NC(=O)c1ccc(N2CCC(NC3CC3)CC2)c2cn(C)nc12 | MYB mRNA | 100 to 1000 nM |
| COc1nc2nc(C)cn2cc1NC(=O)c1ccc(N2CCC(NC3CC3)CC2)c2cn(C)nc12 | MYB mRNA | < 100 nM |
| Cn1cc2c(N3CCC(NC4CC4)CC3)cc(F)c(C(=O)Nc3cc4cn(C)nc4n(C)c3=O)c2n1 | MYB mRNA | 100 to 1000 nM |
| CCNC1CCN(c2cc(F)c(C(=O)Nc3nc4c(C)nc(C)cc4n3C)c3nn(C)cc23)CC1 [Compound 402, trifluoroacetate] | MYB mRNA | > 10000 nM |
| CCNC1CCN(c2cc(Cl)c(C(=O)Nc3cn4cc(C)nc4c(F)c3OC)c3nn(C)cc23)CC1 | MYB mRNA | < 100 nM |
| COc1cn2nc(C)cc2cc1NC(=O)c1c(F)cc(N2CCC(NC3CC3)CC2)c2cn(C)nc12 | MYB mRNA | < 100 nM |
| Cc1cn2nc(C(=O)Nc3ccc(N4C[C@@H](C)N[C@@H](C)C4)c4cc[nH]c34)cc(C)c2n1 | MYB mRNA | 1000 to 10000 nM |
| CCNC1CCN(c2ccc(C(=O)Nc3ccn(-c4ccncn4)n3)c3nn(C)cc23)CC1 [Compound 363, trifluoroacetate] | MYB mRNA | > 10000 nM |
| Cc1cc2oc(NC(=O)c3c(F)cc(N4CCC(NC5CC5)CC4)c4cn(C)nc34)cc2c(C)n1 | MYB mRNA | > 10000 nM |
| CCNC1CCN(c2cc(F)c(C(=O)Nc3cn4c(N)c(C)nc4c(F)c3OC)c3nn(C)cc23)CC1 | MYB mRNA | > 10000 nM |
| Cc1cn2cc(NC(=O)c3c(F)cc(N4CCC(NC5CC5)CC4)c4cn(C)nc34)cc(Oc3ccnnc3)c2n1 | MYB mRNA | 100 to 1000 nM |
| Cc1cn2cc(NC(=O)c3ccc(N4CCC(N5CCNCC5)C4)c4cn(C)nc34)nc2c(C)n1 (centres unmarked) | MYB mRNA | 100 to 1000 nM |
| Cn1cc2cc(NC(=O)c3c(O)cc(N4CC[C@@H](NC5CC5)C4)c4cn(C)nc34)cc(F)c2n1 | MYB mRNA | < 100 nM |

###

Tested on: HTT mRNA
Method Notes: Splicing RT-qPCR assay (THP), Table 2A
Type: cell-based
Reported Conditions: Table 2A (THP), CJ mRNA decrease, read-out: HTT CJ (decrease in canonical junction mRNA, IC50)
pIC50: −log10 of the molar value.
Listed next: entries and their corresponding pIC50.
Property Measured: pIC50

| Compound | Property Measured | Test Value |
| --- | --- | --- |
| Cn1cc2cc(NC(=O)c3c(F)cc(N4CCC(NC5CC5)CC4)c4cn(C)nc34)c(F)cc2n1 [Compound 422] | pIC50 | 6.00 to 7.00 |
| COc1cc2nn(C)cc2cc1C#Cc1c(F)cc(N2CCC(NC3CC3)CC2)c2cn(C)nc12 [Compound 446] | pIC50 | 5.00 to 6.00 |
| CCNC1CC2(C1)CN(c1ccc(C(=O)Nc3cn4cc(C)nc(C)c4n3)c3nn(C)cc13)C2 [Compound 576] | pIC50 | < 5.00 |
| Cc1cn2cc(NC(=O)c3ncc(N4CCC(NC5CC5)CC4)c4cn(C)nc34)nc2c(C)n1 [Compound 264] | pIC50 | < 5.00 |
| CCNC1CCN(c2ccc(C(=O)Nc3cc(F)c4nn(C)cc4c3)c3nn(C)cc23)CC1 [Compound 182] | pIC50 | 5.00 to 6.00 |

###

Test system: MYB mRNA
Method Notes: Gene panel canonical junction qPCR assay, decrease in CJ mRNA, Table 3
Type: cell-based
Reported Conditions: decrease in CJ mRNA levels, canonical junction qPCR, gene panel

| Compound String | Target | IC50 |
| --- | --- | --- |
| Cn1cc2cc(NC(=O)c3ccc(N4CCC(NC5CC5)CC4)c4cn(C)nc34)cc(CCO)c2n1 | MYB mRNA | 1000 to 10000 nM |
| Cn1cc2cc(NC(=O)c3ccc(N4CCC(NC5CC5)CC4)c4cn(C)nc34)cc(Cn3ccnn3)c2n1 | MYB mRNA | 1000 to 10000 nM |
| COc1nc2c(C(=O)Nc3cc(CO)c4nn(C)cc4c3)ccc(N3CCC(NC4CC4)CC3)c2s1 | MYB mRNA | 100 to 1000 nM |
| CCNC1CCN(c2ccc(C(=O)Nc3cn4cc(C)nc(CNS(C)(=O)=O)c4n3)c3nn(C)cc23)CC1 | MYB mRNA | 1000 to 10000 nM |
| Cc1c2cc(NC(=O)c3ccc(N4CCC(NC5CC5)CC4)c4cn(C)nc34)cc(CNS(C)(=O)=O)c2nn1C | MYB mRNA | > 10000 nM |
| Cc1cn2cc(NC(=O)c3ccc(N4CCC(NC5CC5)CC4)n4nc(C)nc34)nc2c(C)n1 | MYB mRNA | 100 to 1000 nM |
| COc1nc2c(C(=O)Nc3cc(F)c4nn(C)cc4c3)ccc(N3C[C@H](C)N[C@@H](C)C3)c2o1 | MYB mRNA | < 100 nM |
| Cc1cn2cc(NC(=O)c3ccc(N4CCCCC4)c4cn(C)nc34)nc2c(CNS(C)(=O)=O)n1 | MYB mRNA | > 10000 nM |
| CCNC1CCN(c2ccc(C(=O)Nc3cc(CNS(C)(=O)=O)c4nn(C)cc4c3)c3nn(C)cc23)CC1 | MYB mRNA | 1000 to 10000 nM |
| COc1nc2c(C(=O)Nc3ccc4c(c3)OCCO4)ccc(N3C[C@H](C)N[C@@H](C)C3)c2s1 | MYB mRNA | 1000 to 10000 nM |
| Cc1cn2cc(NC(=O)c3ccc(N4CCC(NC5CC5)CC4)c4cn(C)nc34)nc2c(CCN)n1 | MYB mRNA | > 10000 nM |
| CCNC1CCN(c2ccc(C(=O)Nc3cc(CCC(N)=O)c4nn(C)cc4c3)c3nn(C)cc23)CC1 | MYB mRNA | > 10000 nM |
| Cc1cn2cc(NC(=O)c3ccc(N4C[C@@H](C)N[C@@H](C)C4)c4c3OC(F)(F)O4)cc(F)c2n1 | MYB mRNA | > 10000 nM |
| CCNC1CCN(c2ccc(C(=O)Nc3cc(CCc4nnc[nH]4)c4nn(C)cc4c3)c3nn(C)cc23)CC1 | MYB mRNA | > 10000 nM |
| Cc1cn2cc(NC(=O)c3ccc(N4CCC5(CCCN5)CC4)c4cn(C)nc34)nc2c(CNS(C)(=O)=O)n1 | MYB mRNA | > 10000 nM |
| COc1nc2c(C(=O)Nc3cc(CNS(C)(=O)=O)c4nn(C)cc4c3)ccc(N3CCC(NC4CC4)CC3)c2s1 | MYB mRNA | > 10000 nM |
| C=CCNC1CCN(c2ccc(C(=O)Nc3cc(CNS(C)(=O)=O)c4nc(C)cn4c3)c3nn(C)cc23)CC1 | MYB mRNA | 100 to 1000 nM |
| C[C@H]1CN(c2ccc(C(=O)Nc3cc(F)c4nn(C)cc4c3)c3nc(OCCO)sc23)C[C@H](C)N1 | MYB mRNA | < 100 nM |
| Cc1cn2cc(NC(=O)c3ccc(N4CCC(NC5CC5)CC4)c4cn(C)nc34)nc2c(Cn2cnc3ncnc(N)c32)n1 | MYB mRNA | 100 to 1000 nM |
| CN[C@H]1CCN(c2ccc(C(=O)Nc3cc(F)c4nn(C)cc4c3)c3nc(OC)sc23)C1 | MYB mRNA | < 100 nM |
| COc1cc2c(N3CCC(NC4CC4)CC3)ccc(C(=O)Nc3cc(C)c4nc(C)cn4n3)n2n1 | MYB mRNA | 1000 to 10000 nM |

Values from patent US20260285853A1
